target-system: Nitric oxide synthase, inducible (Homo sapiens)
Sequence (P35228 whole entry): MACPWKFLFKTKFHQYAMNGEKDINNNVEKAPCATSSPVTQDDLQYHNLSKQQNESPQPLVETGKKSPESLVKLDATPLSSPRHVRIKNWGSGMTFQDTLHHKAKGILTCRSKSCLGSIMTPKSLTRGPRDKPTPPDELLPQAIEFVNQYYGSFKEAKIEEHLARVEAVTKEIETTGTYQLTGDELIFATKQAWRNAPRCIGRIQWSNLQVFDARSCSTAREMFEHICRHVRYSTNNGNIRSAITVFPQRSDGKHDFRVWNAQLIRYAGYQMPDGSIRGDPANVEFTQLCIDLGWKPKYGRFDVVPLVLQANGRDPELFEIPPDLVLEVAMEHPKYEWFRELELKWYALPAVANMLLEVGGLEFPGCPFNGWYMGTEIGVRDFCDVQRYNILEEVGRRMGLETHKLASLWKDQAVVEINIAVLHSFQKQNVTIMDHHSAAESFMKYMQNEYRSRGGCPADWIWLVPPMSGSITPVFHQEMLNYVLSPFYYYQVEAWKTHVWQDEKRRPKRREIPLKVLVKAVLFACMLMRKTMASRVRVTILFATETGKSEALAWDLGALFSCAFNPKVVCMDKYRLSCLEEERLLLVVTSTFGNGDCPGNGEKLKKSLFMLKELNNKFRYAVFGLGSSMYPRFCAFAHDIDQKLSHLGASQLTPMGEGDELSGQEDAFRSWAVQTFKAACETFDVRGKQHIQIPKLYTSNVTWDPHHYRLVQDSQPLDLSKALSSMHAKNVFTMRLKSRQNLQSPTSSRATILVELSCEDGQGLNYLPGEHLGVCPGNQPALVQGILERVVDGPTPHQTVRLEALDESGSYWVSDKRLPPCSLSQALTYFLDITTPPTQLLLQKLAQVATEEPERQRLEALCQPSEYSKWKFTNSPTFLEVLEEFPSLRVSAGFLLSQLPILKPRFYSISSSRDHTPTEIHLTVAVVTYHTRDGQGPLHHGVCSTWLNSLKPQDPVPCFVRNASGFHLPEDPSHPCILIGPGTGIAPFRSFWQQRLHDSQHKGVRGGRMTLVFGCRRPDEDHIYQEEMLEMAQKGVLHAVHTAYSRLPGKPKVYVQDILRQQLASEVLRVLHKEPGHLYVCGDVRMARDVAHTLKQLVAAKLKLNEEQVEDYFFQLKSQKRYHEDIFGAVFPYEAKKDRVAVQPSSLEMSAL
pIC50: −log10 of the molar value.
Would you please tag the item Fulfilled when its pIC50 is 7 or above, and Not fulfilled when it is below?

compound: C[C@@H]1CC(N)=N[C@@H]2CCC[C@H]12 (stereo in doubt; 10a)
target-system: Nitric oxide synthase, inducible (Homo sapiens)
group-label: Fulfilled

compound: N=C1CCCCN1
target-system: Nitric oxide synthase, inducible (Homo sapiens)
group-label: Not fulfilled

compound: C[C@H]1CC(N)=N[C@H]2CCCC[C@H]21
target-system: Nitric oxide synthase, inducible (Homo sapiens)
group-label: Not fulfilled

compound: C[C@@H]1CC(N)=N[C@@H]2CCC[C@H]12 (stereo in doubt; 10)
target-system: Nitric oxide synthase, inducible (Homo sapiens)
group-label: Fulfilled

compound: CC1CCN=C(N)C1 (stereo not drawn)
target-system: Nitric oxide synthase, inducible (Homo sapiens)
group-label: Fulfilled

compound: C[C@@H]1CC(N)=N[C@H]2CCCC[C@@H]12
target-system: Nitric oxide synthase, inducible (Homo sapiens)
group-label: Fulfilled

compound: C[C@@H]1CC(N)=N[C@@H]2CCCC[C@H]12
target-system: Nitric oxide synthase, inducible (Homo sapiens)
group-label: Fulfilled

====

target-system: Nitric oxide synthase (inducible and endothelial) (Homo sapiens) (UniProt P35228+P29474)
assay-details: Selectivity measured as the ratio of eNOS IC50/iNOS IC50
Assay type: protein assay

compound: C[C@@H]1CC(N)=N[C@@H]2CCC[C@H]12 (stereo in doubt; 10a)
Selectivity: 40
//
compound: C[C@@H]1CC(N)=N[C@@H]2CCCCC[C@H]12
Selectivity: 5.2
//
compound: C[C@@H]1CC(N)=N[C@@H]2CCC[C@H]12 (stereo in doubt; 10)
Selectivity: 31
//
compound: C[C@@H]1CC(N)=N[C@H]2CCCC[C@@H]12
Selectivity: 52
//
compound: C[C@@H]1CC(N)=N[C@@H]2CCCC[C@H]12
Selectivity: 37
//
compound: NC1=Nc2ccccc2CC1
Selectivity: 6.1
//
compound: NC1=N[C@H]2CCCC[C@H]2CC1
Selectivity: 67
//
compound: C[C@H]1CC(N)=N[C@H]2CCC[C@H]21
Selectivity: 6.5

====

target-system: UniProt:P29475
Sequence (P29475 whole entry): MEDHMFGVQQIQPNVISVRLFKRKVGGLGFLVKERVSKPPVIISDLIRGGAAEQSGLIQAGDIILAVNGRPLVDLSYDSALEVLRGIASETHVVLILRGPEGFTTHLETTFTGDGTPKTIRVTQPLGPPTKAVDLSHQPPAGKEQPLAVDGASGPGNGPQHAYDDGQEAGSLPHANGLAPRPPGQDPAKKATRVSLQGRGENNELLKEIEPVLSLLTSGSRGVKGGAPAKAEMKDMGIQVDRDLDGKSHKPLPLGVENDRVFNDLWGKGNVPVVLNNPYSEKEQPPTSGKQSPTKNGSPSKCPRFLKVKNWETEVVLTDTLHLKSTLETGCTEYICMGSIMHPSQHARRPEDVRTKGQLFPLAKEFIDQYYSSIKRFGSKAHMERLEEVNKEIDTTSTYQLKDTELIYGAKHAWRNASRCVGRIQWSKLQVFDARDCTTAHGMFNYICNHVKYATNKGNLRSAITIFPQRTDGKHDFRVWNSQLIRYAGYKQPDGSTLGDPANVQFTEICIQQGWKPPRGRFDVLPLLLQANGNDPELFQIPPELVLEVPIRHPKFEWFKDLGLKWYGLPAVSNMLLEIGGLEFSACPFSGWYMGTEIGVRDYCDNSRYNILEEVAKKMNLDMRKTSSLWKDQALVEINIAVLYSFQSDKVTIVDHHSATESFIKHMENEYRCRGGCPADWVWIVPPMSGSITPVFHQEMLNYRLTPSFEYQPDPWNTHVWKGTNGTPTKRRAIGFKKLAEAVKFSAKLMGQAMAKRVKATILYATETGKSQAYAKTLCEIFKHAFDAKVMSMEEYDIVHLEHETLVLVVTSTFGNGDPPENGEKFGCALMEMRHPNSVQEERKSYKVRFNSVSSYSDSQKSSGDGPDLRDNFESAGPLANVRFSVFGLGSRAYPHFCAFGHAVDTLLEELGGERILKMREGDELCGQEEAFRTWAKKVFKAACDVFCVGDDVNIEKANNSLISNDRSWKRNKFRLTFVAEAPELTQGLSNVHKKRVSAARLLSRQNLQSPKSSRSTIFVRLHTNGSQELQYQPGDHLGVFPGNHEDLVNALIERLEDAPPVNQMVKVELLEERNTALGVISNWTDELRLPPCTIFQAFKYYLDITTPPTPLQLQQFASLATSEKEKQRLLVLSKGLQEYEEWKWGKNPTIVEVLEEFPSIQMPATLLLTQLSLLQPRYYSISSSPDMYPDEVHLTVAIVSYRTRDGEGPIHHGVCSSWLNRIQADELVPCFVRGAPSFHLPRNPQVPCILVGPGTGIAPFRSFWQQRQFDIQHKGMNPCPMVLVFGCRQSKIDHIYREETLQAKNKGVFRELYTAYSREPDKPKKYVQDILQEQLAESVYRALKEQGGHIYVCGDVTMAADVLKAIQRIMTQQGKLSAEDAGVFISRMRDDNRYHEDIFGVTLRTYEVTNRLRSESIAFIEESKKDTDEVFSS
Below, each entry is listed alongside its reported IC50.

compound: C[C@@H]1CC(N)=N[C@@H]2CCC[C@H]12 (stereo in doubt; 10)
target-system: UniProt:P29475
IC50 [nM]: 31
//
compound: C[C@H]1CC(N)=N[C@H]2CCCC[C@H]21
target-system: UniProt:P29475
IC50 [nM]: 610
//
compound: C[C@@H]1CC(N)=N[C@@H]2CCC[C@H]12 (stereo in doubt; 10a)
target-system: UniProt:P29475
IC50 [nM]: 21
//
compound: NC1=N[C@H]2CCCC[C@H]2CC1
target-system: UniProt:P29475
IC50 [nM]: 246
//
compound: C[C@@H]1CC(N)=N[C@@H]2CCCC[C@H]12
target-system: UniProt:P29475
IC50 [nM]: 53
//
compound: C[C@H]1CC(N)=N[C@H]2CCC[C@H]21
target-system: UniProt:P29475
IC50 [nM]: 36
//
compound: NC1=Nc2ccccc2CC1
target-system: UniProt:P29475
IC50 [nM]: 4900
//
compound: C[C@@H]1CC(N)=N[C@H]2CCCC[C@@H]12
target-system: UniProt:P29475
IC50 [nM]: 190
